System: β-galactosidase in CMV-LacZ C2C12 myoblasts
assay comment: CMV-LacZ secondary screen in C2C12 myoblasts (β-Gal stabilizing assay)
Type: cell-based, mouse
condition parameters: 5 uM; CMV-LacZ C2C12 myoblasts
Use 1 as the dividing line for CMV-LACZ in Myoblasts (β-galactosidase activity relative to DMSO), with the line itself on the t side and lower values as f.

Record excerpt, results attached:
- molecule: "O=C(N[C@@H](Cc1c[nH]c2ccccc12)C(=O)O)C1CCN(S(=O)(=O)c2cccs2)CC1"
  group label: "f"
- molecule: "CC(=O)Nc1ccc(NC(=O)C/C(C)=N/NC(=O)COc2cc(C)c(Br)cc2Br)cc1"
  group label: "f"
- molecule: "COc1ccc(NC(=O)C2(N(C(=O)Cn3nnnc3N)c3ccc(OC)cc3)CCCCC2)cc1"
  group label: "t"

Ask | CMV-LACZ in Myoblasts (β-galactosidase activity relative to DMSO) >= 1 for O=C1CCC(C(=O)N2CCSCC2)CN1Cc1ccc(Cl)cc1 (centres unmarked) ?
Reply | f

Ask | CMV-LACZ in Myoblasts (β-galactosidase activity relative to DMSO) >= 1 for `CN(/C(=N/S(=O)(=O)c1cccs1)c1ccccc1)c1ccccc1` ?
Reply | t
